Let's look at some molecules and their measured pIC50.
# assayedTarget: NR1/NR2B (Rattus norvegicus, UniProt P35439+Q00960)
# Sequence (Q00960 27-1482, other chains not shown): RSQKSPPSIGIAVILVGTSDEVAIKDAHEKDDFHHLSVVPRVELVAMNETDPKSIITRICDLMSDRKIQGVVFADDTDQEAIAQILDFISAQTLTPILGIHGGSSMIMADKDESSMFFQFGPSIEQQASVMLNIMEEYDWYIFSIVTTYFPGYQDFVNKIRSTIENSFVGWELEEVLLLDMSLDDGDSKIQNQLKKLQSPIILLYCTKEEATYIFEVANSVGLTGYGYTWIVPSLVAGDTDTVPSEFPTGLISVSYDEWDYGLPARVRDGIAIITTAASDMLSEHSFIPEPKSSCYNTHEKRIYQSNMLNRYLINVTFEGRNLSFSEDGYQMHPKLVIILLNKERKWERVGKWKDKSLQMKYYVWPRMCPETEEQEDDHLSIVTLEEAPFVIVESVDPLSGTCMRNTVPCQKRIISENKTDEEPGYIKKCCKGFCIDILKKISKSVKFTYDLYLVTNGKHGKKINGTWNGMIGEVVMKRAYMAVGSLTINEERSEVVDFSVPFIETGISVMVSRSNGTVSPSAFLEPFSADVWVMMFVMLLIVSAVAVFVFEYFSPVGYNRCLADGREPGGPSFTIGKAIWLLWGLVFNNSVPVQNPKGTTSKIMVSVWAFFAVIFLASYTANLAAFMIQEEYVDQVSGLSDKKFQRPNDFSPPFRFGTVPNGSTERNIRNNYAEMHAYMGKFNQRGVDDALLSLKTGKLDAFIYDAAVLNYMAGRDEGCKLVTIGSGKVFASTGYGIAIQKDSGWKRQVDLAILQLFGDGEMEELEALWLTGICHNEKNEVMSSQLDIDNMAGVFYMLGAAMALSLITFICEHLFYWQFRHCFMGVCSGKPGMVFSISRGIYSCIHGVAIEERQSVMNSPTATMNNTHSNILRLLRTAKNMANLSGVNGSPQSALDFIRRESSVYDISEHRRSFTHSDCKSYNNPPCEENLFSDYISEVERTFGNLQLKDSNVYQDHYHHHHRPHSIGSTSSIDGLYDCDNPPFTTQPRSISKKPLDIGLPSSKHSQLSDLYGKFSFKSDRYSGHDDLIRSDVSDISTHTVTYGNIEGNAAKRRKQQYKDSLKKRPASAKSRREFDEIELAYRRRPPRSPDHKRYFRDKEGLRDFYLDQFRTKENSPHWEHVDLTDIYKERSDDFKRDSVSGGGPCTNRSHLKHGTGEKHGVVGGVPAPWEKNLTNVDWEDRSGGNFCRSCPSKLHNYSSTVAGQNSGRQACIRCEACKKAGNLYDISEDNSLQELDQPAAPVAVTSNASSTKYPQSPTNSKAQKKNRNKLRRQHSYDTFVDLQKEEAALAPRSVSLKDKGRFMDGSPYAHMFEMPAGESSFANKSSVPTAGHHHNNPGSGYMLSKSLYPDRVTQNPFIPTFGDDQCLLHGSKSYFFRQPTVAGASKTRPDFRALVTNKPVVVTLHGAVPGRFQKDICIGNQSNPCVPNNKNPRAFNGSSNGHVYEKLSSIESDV
# assayExplanation: Two electrode voltage clamp, Xenopus oocytes expressing recombinant NR1/NR2B
# Format: cell-based
# experimentalContext: logistic fit, minimum forced to 0; read-out: 2B IC50
A value of pIC50 is the negative decimal logarithm of a concentration given in moles per litre.

Check out these entries, answers already filled in.
>  <molecule>
O=C(O)CCC(=O)N1N=C(c2c(-c3ccccc3)c3cc(Cl)ccc3[nH]c2=O)CC1c1ccc(Br)cc1 (stereo not drawn)

>  <pIC50>
4.66

$$$$
>  <molecule>
Cc1ccc2[nH]c(=O)c(C3=NN(C(=O)CCC(=O)O)C(c4ccc(Br)cc4)C3)c(-c3ccccc3)c2c1 (stereo not drawn)

>  <pIC50>
4.13

$$$$

Query: What value of pIC50 has been reported for the following molecule? Cc1ccc(C2CC(c3c(-c4ccccc4)c4cc(Br)ccc4[nH]c3=O)=NN2C(=O)CCC(=O)O)cc1 (stereo not drawn)
Response: 4.23
